Ref: PubChem BioAssay (NCI)

Documented TGI across a set of molecules
tested on: EKVX NSCLC; test: NCI tumour cell line growth inhibition, 48 h

[
  {
    "molecule": "OC1c2[nH]c3ccccc3c2CCN2CCCCC12 (stereo not given)",
    "TGI": "> 100 µM"
  },
  {
    "molecule": "Nc1nc(N)c2nc(CNc3ccc(C(=O)NC(CCC(=O)O)C(=O)O)cc3F)cnc2n1 (stereo not given)",
    "TGI": "> 100 µM"
  },
  {
    "molecule": "N#CC1=C(N)OC2=C(CCCc3ccccc32)C1c1ccc([N+](=O)[O-])cc1 (stereo not given)",
    "TGI": "43 µM"
  },
  {
    "molecule": "COC(=O)C1=C(O)C(C(=O)OC)[C@]2(O)[C@@H](C(=O)OC)[C@H]1[C@H](C)[C@@H](c1ccccc1)[C@@H]2C(=O)OC (stereo not given in full)",
    "TGI": "> 100 µM"
  },
  {
    "molecule": "O=C1CCc2c(Oc3ccc4c(c3)[C@H]3[C@@H](O4)[C@@H]3c3nc4ccc(C(F)(F)F)cc4[nH]3)ccnc2N1",
    "TGI": "> 100 µM"
  },
  {
    "molecule": "CC1NOC(=O)C1N=Nc1ccccc1Br (stereo not given)",
    "TGI": "80.3 µM"
  },
  {
    "molecule": "O=C1NC(N/N=C/c2cccs2)=N/C1=C\\c1ccco1",
    "TGI": "> 100 µM"
  },
  {
    "molecule": "Cc1ccc(C2C3Cc4ccccc4C3=NN2c2ccc(S(=O)(=O)NC(=O)NC3CCCCC3)cc2)cc1 (stereo not given)",
    "TGI": "67.1 µM"
  },
  {
    "molecule": "O=C1CCCC/C1=C(\\Br)I",
    "TGI": "34.4 µM"
  },
  {
    "molecule": "CCN(CC)CCNC(=O)c1cc2cc(NC(=O)c3cc4cc(N)ccc4[nH]3)ccc2[nH]1",
    "TGI": "> 100 µM"
  },
  {
    "molecule": "Cc1noc(C)c1-n1nc2ccc3nonc3c2n1",
    "TGI": "> 92.4 µM"
  },
  {
    "molecule": "COC(=O)C1=C(C(=O)OC)SC(=C(Cl)C(=S)Oc2ccccc2N)S1",
    "TGI": "> 50 µM"
  },
  {
    "molecule": "C[C@]12CC[C@H]3[C@@H](CCC4=C[C@@H](N5CCCC5)CC[C@@]43C)[C@@H]1C/C(=C\\c1ccncc1)[C@@H]2O",
    "TGI": "49.6 µM"
  },
  {
    "molecule": "COc1ccc(Nc2nc3cc(C(F)(F)F)ccc3n3cccc23)cc1OC",
    "TGI": "58.5 µM"
  },
  {
    "molecule": "O=C(O)c1cccc(SSc2cccc(C(=O)O)c2)c1",
    "TGI": "> 100 µM"
  },
  {
    "molecule": "CC(C)(Br)C(Br)CCC1(C(Br)CBr)CO1 (stereo not given)",
    "TGI": "> 10 µM"
  },
  {
    "molecule": "O=C(O)CNS(=O)(=O)c1ccc(NC(=O)c2ccccc2[N+](=O)[O-])cc1",
    "TGI": "> 100 µM"
  },
  {
    "molecule": "CCCNC1=C(C)C(=O)C2=C(C1=O)[C@H](COC(N)=O)[C@]1(OC)[C@@H]3N[C@@H]3CN21",
    "TGI": "27.4 µM"
  },
  {
    "molecule": "CCOC(=O)CCC(NC(=O)c1ccc(Sc2nc3cc(N)cc(N)c3nc2-c2ccccc2)cc1)C(=O)OCC (stereo not given)",
    "TGI": "> 77.6 µM"
  },
  {
    "molecule": "CCCC(=O)OCC1OC(n2cnc3c(=S)nc(N)[nH]c32)C(OC(=O)CCC)C1OC(=O)CCC (stereo not given)",
    "TGI": "> 100 µM"
  }
]
